- experimental protocol: Cell viability (CCK-8), cytotoxicity
- condition notes: human, THP1 cells, Cell viability (Fig. S7a), XQ2 625 nM
Square brackets hold non-standard residues; d marks the D form. Peptide text beside a SMILES is read from it.
assay endpoint: viability at 48 h, 0.625 µM (%)
Record the value in %, omitting the unit from your answer.

Suppose we examine the compound CC(C)C[C@@H]1NC(=O)[C@H](CCCNC(=N)N)NC(=O)[C@H](C(C)C)NC(=O)[C@@H]2CCCN2C(=O)[C@@H](Cc2ccccc2)NC(=O)[C@H](CC(C)C)NC(=O)[C@H](CCCNC(=N)N)NC(=O)[C@H](C(C)C)NC(=O)[C@H](C)NC(=O)[C@@H](Cc2ccccc2)NC1=O [XQ2, Cyclo (LfAVRLfPVR)] (cyclo(L[dF]AVRL[dF]PVR)) ; what viability at 48 h, 0.625 µM value has been reported?
94.8

Values from paper PMC10545747
